Target: T1, MBP-SUV39H1 42-106 (chromodomain) (Homo sapiens, UniProt O43463 42-106)
T1 sequence: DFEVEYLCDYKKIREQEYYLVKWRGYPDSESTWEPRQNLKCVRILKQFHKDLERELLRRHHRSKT
Experiment: EMSA; 20 mM Tris-HCl pH 7.4, 50 mM NaCl, 10% glycerol, ~4 U RNase inhibitor, room temperature 10 min; native gel 0.5X TBE at 25 C; filter binding on nitrocellulose in the same buffer
Conditions: protein: recombinant; tags: MBP; label: 32P
readout-kind: Kd (nM)
The answer is to be given in nM; state only the numeric part.

// Kd lookup, key: AUAUGGGAACCACUGAUCC (ssRNA) [sense 19mer ssRNA]
2310
